Reference source for all entries: PubChem BioAssay AID328

Tested on: BDF1 mice, P388 leukemia ip, median survival T/C
Assay: NCI In Vivo Anticancer Drug Screen. Data for tumor model P388 Leukemia (intraperitoneal) in B6D2F1 (BDF1) mice
Conditions: endpoint: median survival time; dose: 100.0 mg/kg/injection; schedule: Q01DX009 (ip); vehicle: other; higher = longer survival
Inconclusive results and toxic doses are left out.
Measurement label: T/C

Check out these entries, answers already filled in.
INSERT INTO results (molecule, test_result) VALUES
  ('O=C(CC/[N+]([O-])=C/c1ccccc1)OCc1ccccc1', '97 % of control'),
  ('OC(CNc1ccc(CSc2ccccc2)cc1)c1ccccc1 (centres undefined)', '123 % of control'),
  ('C/C(=N\Nc1ccc([N+](=O)[O-])cc1[N+](=O)[O-])C(F)(F)F', '100 % of control');

input: What value of measured T/C is listed for CC1=C(C(=O)OCc2ccccc2)C(c2ccc(Cl)cc2)C(C(=O)OCc2ccccc2)=C(C)N1 ?
output: 89 % of control

input: What value of measured T/C is listed for CCOC(=O)CC1NCCC2C1CCC(OC)C2OC (centres undefined) ?
output: 105 % of control

input: What value of measured T/C is listed for CCCCNc1ccc([N+](=O)[O-])cc1[N+](=O)[O-] ?
output: 101 % of control

input: What value of measured T/C is listed for COc1ccc(CC#N)c(OCc2ccccc2)c1 ?
output: 89 % of control

input: What value of measured T/C is listed for CS(=O)(=O)Nc1ccccc1O ?
output: 104 % of control

input: What value of measured T/C is listed for Cc1cc(C)cc(NCCC#N)c1 ?
output: 115 % of control

###

Tested on: BDF1 mice, P388 leukemia ip, median survival T/C
Experiment: NCI In Vivo Anticancer Drug Screen. Data for tumor model P388 Leukemia (intraperitoneal) in B6D2F1 (BDF1) mice
Settings: endpoint: median survival time; dose: 12.0 mg/kg/injection; schedule: Q01DX009 (ip); vehicle: Klucel (hydroxypropylcellulose) (HPC)
Toxic doses and inconclusive results are not listed. Rule for the calls: active = survival T/C of 150% or more; inactive = T/C below 125% in these data.
In this exercise, the only acceptable responses are label 1 (active), label 0 (inactive)

Consider the following illustrative entries.
INSERT INTO assay_data (compound, measured_on, class) VALUES
  ('NC(CSC(c1ccccc1)(c1ccccc1)c1ccc(CO)cc1)C(=O)O (stereo not given)', 'BDF1 mice, P388 leukemia ip, median survival T/C', 'label 0'),
  ('C[CH2][Pb]([CH2]C)([CH2]C)[O]C(=O)CBr', 'BDF1 mice, P388 leukemia ip, median survival T/C', 'label 0'),
  ('ClC(Cl)(Cl)c1ccc(C(Cl)(Cl)Cl)cc1', 'BDF1 mice, P388 leukemia ip, median survival T/C', 'label 0'),
  ('COc1cc([C@@H]2c3cc4c(cc3[C@H](O)[C@H]3COC(=O)[C@@H]23)OCO4)cc(OC)c1OC', 'BDF1 mice, P388 leukemia ip, median survival T/C', 'label 1');

API: the following record is the query input.
input: Name the outcome recorded for BrCc1ccc(CBr)c(Br)c1 in the assay.
output: label 0

###

Test system: BDF1 mice, P388 leukemia ip, median survival T/C
Test: NCI In Vivo Anticancer Drug Screen. Data for tumor model P388 Leukemia (intraperitoneal) in B6D2F1 (BDF1) mice
Conditions: endpoint: median survival time; dose: 50.0 mg/kg/injection; schedule: Q01DX001 (ip); vehicle: saline with Tween-80; higher = longer survival
Inconclusive results and toxic doses are left out.
Measurement label: T/C

INSERT INTO assay_data (mol, test_result) VALUES
  ('CC1=Nc2ccccc2N(C)/C1=C/C1=C(Cl)C(=O)c2ccccc2C1=O', '94 % of control'),
  ('Cc1nc2ccc3nc(N)nc(N)c3c2nc1C', '104 % of control'),
  ('CC(C)(C)[Si](OC(=O)N(CCCl)CCCl)(c1ccccc1)c1ccccc1', '100 % of control'),
  ('O=C(O)c1ccccc1C(=O)OC1=CS(=O)(=O)CC1', '93 % of control');

input: What value of measured T/C is listed for Cn1nnnc1[N-]Cc1ccccc1.[Au+].c1ccc([PH+](c2ccccc2)c2ccccc2)cc1 ?
output: 123 % of control
